Data provenance is the RNAGym collection of RNA variant scans (doi:10.7554/elife.90254).

B1: LINE1-full (parent)
chain: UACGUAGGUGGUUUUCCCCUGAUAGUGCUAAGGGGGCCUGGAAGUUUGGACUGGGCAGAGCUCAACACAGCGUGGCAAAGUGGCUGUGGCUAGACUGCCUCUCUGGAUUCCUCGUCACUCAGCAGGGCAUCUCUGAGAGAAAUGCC

variants of: B1; experiment: self-cleavage, relative activity (ratio to wild type); higher = more cleavage; in vitro, sequencing; the parent is a self-cleaving ribozyme
Some variants, each annotated with its measured self-cleavage.

Worked examples follow.
UACGUAGGUGGUUUUCCCCUGAUAGUGCUAAGGGGGCCUGGAAGUUUGGACUGGGCAGAGCUCAACACAGCGUGGCAAAGUGGCUGUGGCUAGACUGCCUCUCUGAAUUCCUCGUCACUCAGCGGGGCAUCUCUGAGAGAAAUGCC [G106A A124G] = 1.81
UACGUAGGUGGUUUUCCCCUGAUAGUGCUAAGGGGGCCUGGAAGUUUGGACUGGGCAGAGCUCAACACAGCGUGGCAAAGUGGCUGUGACUAGACUGCCUCUCUGGAUUCCUCGUCACUCAGCAGGGCAUCUCUGAGAGGAAUGCC [G89A A140G] = 0.06
UACGUAGGUGGUUCUCCCCUGAUAGUGCUAAGGGGGCCUGGAAGUUUGGACUGGGCAGAGCUCAACACAGCGUGGCAAAGCGGCUGUGGCUAGACUGCCUCUCUGGAUUCCUCGUCACUCAGCAGGGCAUCUCUGAGAGAAAUGCC [U14C U81C] = 1.43

Enquiry: Quick one: self-cleavage for UACGUAGGUGGUUUUCCCCUGAUAGUGCUAAGGGGGCCUGGAAGUUUGGACUGGGCAGAGCUCAACACAGCGUGGCAAAGUGGCUGUGGCUAGGCAGCCUCUCUGGAUUCCUCGUCACUCAGCAGGGCAUCUCUGAGAGAAAUGCC [A94G U96A] ?
Return: 0.11

Enquiry: Now consider UACGUAGGUGGUUUUCCCCUGAUAGUGCUAAGGGGGCCUGGAAGUUUGGACUGGGCAGAGCUCAACACAGCGUGGCAAAAUGGCUAUGGCUAGACUGCCUCUCUGGAUUCCUCGUCACUCAGCAGGGCAUCUCUGAGAGAAAUGCC [G80A G86A] and answer again.
Return: 0.05

Enquiry: Moving on to UACGUAGGUGGUUUUCCCCUGAUAGUGCUAAGGGGGCCUGGAAGUUUGGACUGGGCUGAGCUCAACACAGCGUGGCAAAGUGGCUGUGGCUAGACUGCCACUCUGGAUUCCUCGUCACUCAGCAGGGCAUCUCUGAGAGAAAUGCC [A57U U100A]
Return: 0.03

Enquiry: Again, but for UACGUAGGUGGUUUUCCCCUGACAGUGCUAAGGGGGCCUGGAAGUUUGGACUGGGCAGAGCUCAACACAGCGUGGCAAGGUGGCUGUGGCUAGACUGCCUCUCUGGAUUCCUCGUCACUCAGCAGGGCAUCUCUGAGAGAAAUGCC [U23C A79G]
Return: 1.4

Enquiry: Same for UACGUAGGUGGUUUUCCCCUGAUAGUGCUGAGGGGGCCUGGAAGUUUGGACUGGGCAGAGCUCAACACAGCGUGGCAAAGUGGCUGUGGCUAGACUGCCUCUCUGGAUUCCUCGUCACUCAGCAGGGCUUCUCUGAGAGAAAUGCC [A30G A129U]
Return: 0.89

Enquiry: Try the variant UACGUAGGUGGCUUUCCCCUGAUAGUGCUAAGGGGGCCUGGAAGUUUGGACUGGGCAGAGCUCAACACAGCGUGGCAAAGUGGCUGUGGCUAGACUGCCUCUCUGGAUUCCUCGACACUCAGCAGGGCAUCUCUGAGAGAAAUGCC [U12C U115A]
Return: 0.87
